Assay: Pharmacokinetic study after single oral dose in rabbits
Format: in vivo
Conditions: male, rabbit, plasma, 2.58 mg/kg
ASSAY READOUT: half-life (h)
Express it in h; write the number only.

Data request, read-out half-life, for CC(C(=O)O)c1ccc(-c2ccccc2)c(F)c1 (stereo not shown)
4.6
